We begin with pIC50 values for Aurora kinase B (Homo sapiens), as collected from the published literature.
Reminder that pIC50 means the negative base-10 logarithm of the concentration expressed in mol/L.

Worked examples follow.
[[record]]
molecule = "Cc1cc(Nc2cc(N3CCN(C)CC3)nc(Nc3ccc(F)c(F)c3)n2)n[nH]1"
reading = 7.05

[[record]]
molecule = "Cc1cn2c(-c3cnn(CC(=O)NCCN(C)C)c3)cnc2c(Nc2cc(CN3CCCC(C)C3)ns2)n1 (configuration not stated)"
reading = 6.12

[[record]]
molecule = "Cn1cc(-c2cnc(N)c3c(-c4ccc(NC(=O)Nc5cccc(F)c5)cc4)csc23)cn1"
reading = 8.05


Consider the molecule shown here: Cc1cc(Nc2nn(Cc3ccc(F)cc3)c(=O)c3ccccc23)n[nH]1 What is its recorded pIC50?
4.16

Consider the molecule shown here: c1cc(CCNc2ncnc3ccsc23)cc(Nc2nc3ccccc3[nH]2)c1 What is its recorded pIC50?
5.85

----------
We begin with IC50 values for UniProt Q96GD4, as collected from the published literature.

[[record]]
smiles_text = "CCCN1CCC=C(c2ccc(Nc3nc(Nc4ccccc4C(N)=O)c4cc[nH]c4n3)c(OC)c2)C1"
assay_endpoint = "IC50"
reading = "> 10 µM"

[[record]]
smiles_text = "Cc1cn2c(-c3cn[nH]c3)cnc2c(Nc2cc(Cc3cccc(C(=O)N4CCCCC4)n3)ns2)n1"
assay_endpoint = "IC50"
reading = "< 0.013 µM"


Next up:
Consider the compound shown here: CC(C)[C@@H](NC(=O)OC(C)(C)C)C(=O)Nc1ccc2ncnc(Nc3cccc(Br)c3)c2c1 What is its recorded IC50?
> 100 µM
